# measurement-description: P. aeruginosa biofilm formation inhibitors, primary screen, strain PAO1, LB-PBS medium, absorbance 600 nm (AID 1176); also: test concentration not given here
# setup-conditions: P. aeruginosa PAO1 growth/biofilm, A600, 12 h; higher = more signal
z-score for assorted compounds
Please respond with just the number, no unit label.

Below, each entry is followed by its recorded z-score result.
compound=CCN1C(=O)[C@H]2[C@H]3[C@H](O)[C@H](O)CC(=NOCc4ccccc4)[C@@H]3CC[C@H]2C1=O value=0.659
compound="N#Cc1ccc(NN2C(C(O)c3cc(C(F)(F)F)cc(C(F)(F)F)c3)C=CC3C(=O)N(c4ccccc4)C(=O)C32)cc1 (configuration not stated)" value=1.14
compound=CO[C@@H]1COC(=O)CC=C[C@@H](C)[C@@H]2C=C[C@H](O)[C@@H](COC(=O)CCC[C@H]1C)O2 value=-0.95
compound=C[C@@H]1CC[C@H]2C(=O)O[C@H](COc3ccc(C(C)(C)C)cc3)CN2[C@H]1c1ccc(Br)cc1 value=0.18
compound=CC(C)=CCCC(C)=CCON=C1[C@H]2CCn3c(=O)n(C)c(=O)n3[C@H]2[C@H](O)[C@@H]2O[C@H]12 value=-0.543

Exam item: Give the measured z-score of CC(CCN1CCc2nc(-c3ccccc3)c(-c3ccccc3)cc2C1)=NOC[C@@H](C)[C@H](OCc1ccccc1)C(C)C .
Marked response: -0.315

Exam item: Give the measured z-score of COC(=O)c1c(CC[C@@H](CO)NC(=O)N[C@H](Cc2ccccc2)Cn2cc(-c3ccccc3N)nn2)oc(C(C)=O)c1C(=O)OC .
Marked response: -0.109

---

# measurement-description: adipocyte viability effects, profiling panel, cell-based, 3T3-L1 adipocytes, calcein-AM fluorescence, 48 h, basal (AID 1163); also: test concentration not given here
# setup-conditions: 3T3-L1 adipocytes viability, higher = more signal
property-measured: z-score
Please respond with just the number, no unit label.

Below, each entry is followed by its recorded z-score result.
compound=COCCCNC(=O)[C@@]1(CCS(=O)(=O)c2ccccc2)N=C(c2ccc(OCCCO)cc2)O[C@H]1c1ccccc1 value=0.217
compound="CC1CC/C=C\\[C@H]2OC34C=CCN(Cn5nnc6ccccc65)C(=O)[C@H]3N(CCO)C(=O)[C@@H]4C2C(=O)O1 (stereo partly drawn)" value=1.11
compound="CN1C(=O)C2C(C1=O)C1C=C(CCCO)C2C(c2ccc(CN3CCCC3)cc2)N1C (stereo not drawn)" value=0.617

Exam item: Give the measured z-score of CN1C(=O)C2C=CC(C(O)C(c3ccccc3)c3ccccc3)N(NC(=O)OC(C)(C)C)C2C1=O (stereo not drawn) .
Marked response: -0.4

Exam item: Give the measured z-score of CCOC(=O)CCN1C(=O)[C@H]2[C@H]3[C@H](O)[C@H](O)CC(=NNC(=O)OCc4ccc(OC)cc4)[C@@H]3CC[C@H]2C1=O .
Marked response: -0.426

Exam item: Give the measured z-score of CCOC(=O)NN=C1C[C@@H](O)[C@@H](O)[C@@H]2[C@@H]3C(=O)N(C4CCCCC4)C(=O)[C@@H]3CC[C@@H]12 .
Marked response: -0.091

Exam item: Give the measured z-score of CC(C)c1ccc(NN2C(C(O)c3ccc4c(c3)OCO4)C=CC3C(=O)N(c4ccccc4)C(=O)C32)cc1 (stereo not drawn) .
Marked response: -0.293

Exam item: Give the measured z-score of O=C1[C@H]2[C@H]3[C@H](O)[C@H](O)CC(=NOC[C@@H](O)COCc4ccco4)[C@H]3CC[C@H]2C(=O)N1Cc1ccc2c(c1)OCO2 .
Marked response: -0.672
